Experiment: Agonist activity at beta-adrenoceptor in guinea pig atria assessed as cardiac stimulant activity by measuring change in rate of contraction of right atrial muscle
Type: tissue-based, Cavia porcellus, Cardiac atrium
READOUT NAME: ED25 (µM)
Answers are plain numbers, in µM.

>>> print(df.to_string())
                                   compound  readout_name  value_measured
0  CC(O)c1cc(C(O)CNC(C)(C)C)ccc1O (stereo not drawn)          ED25             5.2

Field: next compound
// query ED25 value for entry CC(C)(C)NCC(O)c1ccc(O)c(O)c1 (stereo not drawn) 0.0071
